biological target: human PRMT6 (Homo sapiens, UniProt Q96LA8); construct: Flag-PRMT6-His; made in house; host or cells: HEK 293F cells (BacMam baculovirus); experiment: PRMT6 Biochemical Assay (3H-SAM Flashplate, peptide substrate); conditions: Biochemical IC50 PRMT6, single experiment or average of multiple experiments
Sequence (Q96LA8 with tags, fused parts or gaps): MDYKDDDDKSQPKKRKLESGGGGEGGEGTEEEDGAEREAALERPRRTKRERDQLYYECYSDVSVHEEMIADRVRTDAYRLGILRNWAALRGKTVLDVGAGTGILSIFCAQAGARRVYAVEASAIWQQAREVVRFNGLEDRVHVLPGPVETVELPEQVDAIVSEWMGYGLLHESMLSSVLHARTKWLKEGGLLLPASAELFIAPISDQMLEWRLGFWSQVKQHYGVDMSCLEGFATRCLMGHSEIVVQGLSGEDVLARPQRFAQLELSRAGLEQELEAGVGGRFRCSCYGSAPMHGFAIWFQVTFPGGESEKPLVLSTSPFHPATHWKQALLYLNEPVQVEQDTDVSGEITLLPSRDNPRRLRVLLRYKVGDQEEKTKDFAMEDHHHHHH
Test readout: pIC50
Numbers only, as −log10 of the molar value.

Study these solved cases before continuing.
- Molecular string: "CN(CCN)Cc1n[nH]cc1-c1ccc(C#N)cc1"
  Study system: "human PRMT6 (Homo sapiens, UniProt Q96LA8)"
  pIC50: 7.95
- Molecular string: "CN(CCN)Cc1c[nH]nc1-c1cc(F)ccc1Cl"
  Study system: "human PRMT6 (Homo sapiens, UniProt Q96LA8)"
  pIC50: 7.30
- Molecular string: "CNCCN(C)Cc1c[nH]nc1-c1ccc(N)cc1"
  Study system: "human PRMT6 (Homo sapiens, UniProt Q96LA8)"
  pIC50: 7.42
- Molecular string: "CNCCN(C)Cc1c[nH]nc1-c1ccc(NCC(C)C)cc1"
  Study system: "human PRMT6 (Homo sapiens, UniProt Q96LA8)"
  pIC50: 7.48

List reported pIC50 for each of these molecules:
1. CNCCN(C)Cc1n[nH]cc1-c1ccc(Oc2cccc(C(=O)NC)c2)cc1
2. CNCCN(C)Cc1c[nH]nc1-c1ccc(OC2CCOCC2)c(F)c1
3. Cc1ccc(-c2n[nH]cc2CN(C)CCN)c(Cl)c1

OUT:
8.70
7.56
7.99

---

Target: human PRMT1 (Homo sapiens)
Construct: GST-tagged PRMT1; made in house; host or cells: High Five insect cells (baculovirus)
Sequence (Q99873 with tags, fused parts or gaps): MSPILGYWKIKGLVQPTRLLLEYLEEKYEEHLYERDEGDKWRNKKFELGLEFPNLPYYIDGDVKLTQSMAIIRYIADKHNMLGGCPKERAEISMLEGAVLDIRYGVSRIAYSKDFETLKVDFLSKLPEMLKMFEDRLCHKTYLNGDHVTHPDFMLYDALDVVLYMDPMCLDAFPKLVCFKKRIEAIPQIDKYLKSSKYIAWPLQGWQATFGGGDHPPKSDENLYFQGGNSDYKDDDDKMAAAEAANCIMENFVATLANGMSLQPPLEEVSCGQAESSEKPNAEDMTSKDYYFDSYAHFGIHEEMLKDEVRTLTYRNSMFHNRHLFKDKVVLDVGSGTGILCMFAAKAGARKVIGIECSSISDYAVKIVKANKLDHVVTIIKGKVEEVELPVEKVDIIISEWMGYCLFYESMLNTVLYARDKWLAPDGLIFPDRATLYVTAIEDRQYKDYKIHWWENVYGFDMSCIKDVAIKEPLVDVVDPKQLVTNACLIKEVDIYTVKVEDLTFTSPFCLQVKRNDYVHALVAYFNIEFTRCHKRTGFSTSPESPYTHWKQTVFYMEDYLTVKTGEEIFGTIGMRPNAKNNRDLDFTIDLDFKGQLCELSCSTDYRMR
Test: PRMT1 Biochemical Assay (3H-SAM Flashplate, peptide substrate)
Conditions: single experiment or average of multiple experiments
Source text: S-adenosylmethionine (SAM), S-adenosylhomocysteine (SAH), bicine, Tween20, dimethylsulfoxide (DMSO), bovine skin gelatin (BSG), and Tris(2-carboxyethyl)phosphine hydrochloride solution (TCEP) were purchased from Sigma-Aldrich at the highest level of purity possible. ^3H-SAM was purchase from American Radiolabeled Chemicals with a specific activity of 80 Ci/mmol. 384-well streptavidin Flashplates were purchased from PerkinElmer. […]
Test readout: IC50 (nM)
Numbers only, in nM.

Solved entries:
- Compound: "CC(C)Oc1cc(-c2n[nH]cc2CN(C)CCN)ccc1F"
  Val: 163
- Compound: "COCCn1ncc(CN(C)CCN)c1-c1ccc(F)cc1"
  Val: 3460
- Compound: "CNCCN(C)Cc1c[nH]nc1-c1ccc(OC2CC2)cc1"
  Val: 13.5
- Compound: "CNCCN(C)Cc1c[nH]nc1-c1ccc(N)cc1"
  Val: 153

Give IC50 for each of the items listed below.
1. CNCCN(C)Cc1n[nH]cc1-c1cc(Cl)c(OC(C)C)c(Cl)c1
2. COc1cccc(-c2n[nH]cc2CN(C)CCN)c1

OUT:
1: 8.56; 2: 135

Each compound below has a reported value. Please supply its IC50.
1. CC(C)CN1C(=O)COc2cc(-c3n[nH]cc3CN(C)CCN)ccc21
2. Cc1ccc(-c2n[nH]cc2CN(C)CCN)c(Cl)c1
3. CNCCN(C)Cc1cn(CCCC(O)CO)nc1-c1ccc(F)cc1 (stereo not drawn)

OUT:
1. 63.4
2. 41.3
3. 3560

---

target: human PRMT6 (Homo sapiens, UniProt Q96LA8); construct: Flag-PRMT6-His; made in house; host or cells: HEK 293F cells (BacMam baculovirus); test: PRMT6 Biochemical Assay (3H-SAM Flashplate, peptide substrate); conditions: Biochemical IC50 PRMT6, single experiment or average of multiple experiments
Test readout: IC50 (µM)
One number for each entry, in µM.

For orientation, consider the following solved cases.
- Molecule: "CN(CCN(C)C1CC1)Cc1c[nH]nc1-c1ccc(C#N)cc1"
  Val: 2.38
- Molecule: "C=C(C)C(=O)Nc1cccc(-c2[nH]ncc2CN(C)CCNC)c1"
  Val: 0.213
- Molecule: "CNCCN(C)Cc1cn(C2CCOC2)nc1-c1ccc(OC(C)C)cc1 (centres unmarked)"
  Val: 0.323
- Molecule: "COc1ccc(-c2n[nH]cc2CN(C)CCN)cc1F"
  Val: 0.0108
- Molecule: "CNCCN(C)Cc1n[nH]cc1-c1ccc(Oc2ccccc2)cc1"
  Val: 0.00114

Could you tell me IC50 for each of these molecules? They are listed below.
1. CC(C)N(CCN)Cc1c[nH]nc1-c1ccc(F)cc1
2. CC(C)Oc1ccc(-c2n[nH]cc2CN(C)CCN)cc1Cl
3. CN(CCN)Cc1c[nH]nc1-c1cc(Cl)cc(Cl)c1
4. CNCCN(C)Cc1c[nH]nc1-c1ccc(OC(C)C)c(F)c1
5. CN(CCN)Cc1c[nH]nc1-c1ccc2c(c1)OCC(=O)N2C
6. COc1ccc(-c2n[nH]cc2CN(C)CCN)c(OC)c1

OUT:
[1.64, 0.011, 0.00842, 0.0173, 0.0346, 0.103]

Here are 2 molecules. What values of IC50 were reported for them?
1. CNCCN(C)Cc1c[nH]nc1-c1ccc(OC2CCC2)cc1
2. CC(C)Oc1cc(-c2n[nH]cc2CN(C)CCN)ccc1F

OUT:
0.0241
0.0374

IN: Given the entry CN(CCN)Cc1c[nH]nc1-c1cccc(N(C)C)c1 , what IC50 was observed with human PRMT6 (Homo sapiens, UniProt Q96LA8)?
OUT: 0.0625
